Source: patent US20260258115A1

Catalogue of Neut IC50 (ug/ml) subtype A readings, one per entry.
- Target or system: RSV F on recombinant mKate-RSV A2 virus (Respiratory syncytial virus A2, UniProt P03420 26-574)
- Assay summary: cell-based or functional assay

Binder | Result value
ADI-21082 (antibody, V domains shown) VH: EVQLVESGGGLVKPGGSLKLSCVASGLKFSSYSMNWVRQAPGKGLEWVSSVSAGSSYTNYADSVKGRFTISRDNAKNSLYLQMNSLRVDDTAVYYCATERCSGGSCYLHGFDPWGQGTTVTVSS VL: QSVLTQPPSVSGAPGQRVTISCTGSSSNIGAGYDVHWYQQLPGTAPKLLIFDNIIRPSGVPDRFSGSKSGTSASLAITGLQADDEADYYCQSYDKSGDYVFGTGTKVTVL | 0.09 µg/mL
ADI-21064 (antibody, V domains shown) VH: EVQLVESGGEVKKPGASVKVSCKASGYIFSNHGVSWVRQAPGQGLEWMGWISAYNGNAIYAQNLQGRVTLTTDTSTSTAYMELTSLTSDDTAIYYCARESGATAAAVMDYWGQGTLVTVSS VL: DIVLTQTPLSLPVILGQPASISCRSSQSLVYSDGNTYLTWFQQRPGQSPRRLIYKVSNRDSGVPDRFSGSGSDTDFTLKISRVEAEDVGVYYCMQGIDWPRTFGQGTKVDIK | 0.03 µg/mL

I am curious: what Neut IC50 (ug/ml) subtype A value has been reported for ADI-21069 (antibody, V domains shown) VH: EVQLVESGAEVRKPGASVKVSCKASGYTFSSNAISWVRQAPGQGLEWMGYISVFNGNTKYAQNLQGRVTMTTDTATSTVYMELRSLRYDDTAIYYCARESLGMGGFYFDHWGQGTLVTVSS VL: SYELTQPPSVSVAPGQTARITCGANNIGSDSVHWYQQKPGQAPVLVVFDDRDRPSGIPERFSGSNSGNTATLTISRVEAGDEADYYCQVWMTSDRSVFGGGTKLTVL ? 0.11 µg/mL
